molecular target: Mannose-6-phosphate isomerase (Homo sapiens); test: MPI inhibition at elevated mannose 6-phosphate – biochemical, fluorescence intensity, high mannose 6-phosphate, primary screen (AID 1220); conditions: recombinant PMI enzyme, coupled fluorescence intensity; at 20 µM; hits give high values
The campaign covered roughly 190,000 compounds. About 1,300 (0.68%) were called active. The sample holds actives, similar compounds and a random draw of the others, so the mix is not that of the screen.
endpoint.label: inhibition (%)
Could you give me the number in %? Just the number is fine.

- molecule: "CCOC(=O)CNC(=O)CSc1nnc(SCC(=O)NCC(=O)OCC)s1"
  inhibition [%]: -6.4
- molecule: "Cc1cccc(-c2nc(CS(=O)CC(=O)N3CCCCC3)c(C)o2)c1 (stereo not drawn)"
  inhibition [%]: 5.1
- molecule: "O=C1CC(c2ccc(F)cc2)CC2=C1C=Nc1ccccc1N2 (stereo not drawn)"
  inhibition [%]: -4.8
- molecule: "COC(=O)C1=C(C)NC2=C(C(=O)CCC2)C1c1cn(Cc2ccc(Br)cc2)nc1-c1ccccc1 (stereo not drawn)"
  inhibition [%]: 13.4
- molecule: "COCCn1nnnc1C(C(C)C)N1CCSCC1 (stereo not drawn)"
  inhibition [%]: -8

Exercise: Dear colleague, please send me the reported inhibition for `CSc1ccccc1NC(=O)C(=O)c1c[nH]c2ccccc12` when you can.
Key: -2.7

Exercise: Please indicate inhibition recorded for `Cc1sc2ncnc(NCC(C)(C)N3CCOCC3)c2c1C`
Key: -3.6

Exercise: Read the entry `CSc1nsc(/C=C/Nc2ccc(O)cc2C)c1C#N` and write its reported inhibition.
Key: 65.8
